Please respond with reported Test G disease control rating for every item in the list.
test system: Erysiphe graminis f sp. tritici; test: Test G: wheat powdery mildew, preventive spray on wheat seedlings; details: 10 ppm test solution; 100 = 100% disease control, 0 = no control relative to controls
One number for each entry, in %.

# COMPOUND, MEASUREMENT_TARGET, Test G disease control rating, %
data = [
    ("CC1(C(O)(Cn2cncn2)C2=NOC(COc3ccc(C(F)(F)F)cc3)C2)CC1 (single isomer, unassigned) [Compound 237]", "Erysiphe graminis f sp. tritici", 98),
]

Record Test G disease control rating for all entries; do not skip any.
1. CC(C)(C)CC(O)(Cn1cncn1)C1=NOC(COc2ccc(C(F)(F)F)cc2)C1 (single isomer, unassigned) [Compound 240]
2. CC(C)(C)C(O)(Cn1cnnn1)C1=NOC(COc2ccc(Cl)cc2)C1 (stereo not shown) [Compound 247]
3. Cc1ccc(OCC2CC(C(O)(Cn3cncn3)C(C)(C)C)=NO2)cc1 (single isomer, unassigned) [Compound 234]

99
0
99
